system: A549; assay: Cytotoxicity against human A549 cells after 72 hrs by SRB assay; format: functional, cell-based; conditions: A549, 72 h
observable: pIC50
When answering, recall that pIC50 equals minus log10 of the concentration in mol/L, and write that number alone.

chemical-string | target-or-system | result-value
CCC1=C[C@@H]2CN(CCc3c([nH]c4ccccc34)[C@@](C(=O)OC)(c3cc4c(cc3OC)N(C)[C@H]3[C@](O)(CNC(=O)OCc5ccccc5OC)[C@H](OC(C)=O)[C@]5(CC)C=CCN6CC[C@]43[C@@H]65)C2)C1 | A549 | 6.70
CCC1=C[C@@H]2CN(CCc3c([nH]c4ccccc34)[C@@](C(=O)OC)(c3cc4c(cc3OC)N(C)[C@H]3[C@](O)(CNC(=O)OCc5ccc(Cl)cc5)[C@H](OC(C)=O)[C@]5(CC)C=CCN6CC[C@]43[C@@H]65)C2)C1 | A549 | 7.05
CCC1=C[C@@H]2CN(CCc3c([nH]c4ccccc34)[C@@](C(=O)OC)(c3cc4c(cc3OC)N(C)[C@H]3[C@](O)(CNC(=O)Oc5ccc(OC)cc5)[C@H](OC(C)=O)[C@]5(CC)C=CCN6CC[C@]43[C@@H]65)C2)C1 | A549 | 6.44
CCC1=C[C@@H]2CN(CCc3c([nH]c4ccccc34)[C@@](C(=O)OC)(c3cc4c(cc3OC)N(C)[C@H]3[C@](O)(CNC(=O)OCc5ccc(OC)cc5)[C@H](OC(C)=O)[C@]5(CC)C=CCN6CC[C@]43[C@@H]65)C2)C1 | A549 | 7.17
CCC1=C[C@@H]2CN(CCc3c([nH]c4ccccc34)[C@@](C(=O)OC)(c3cc4c(cc3OC)N(C)[C@H]3[C@](O)(CNC(=O)OC5CCC5)[C@H](OC(C)=O)[C@]5(CC)C=CCN6CC[C@]43[C@@H]65)C2)C1 | A549 | 6.92
CCC1=C[C@@H]2CN(CCc3c([nH]c4ccccc34)[C@@](C(=O)OC)(c3cc4c(cc3OC)N(C)[C@H]3[C@](O)(CNC(=O)OCc5ccccc5[N+](=O)[O-])[C@H](OC(C)=O)[C@]5(CC)C=CCN6CC[C@]43[C@@H]65)C2)C1 | A549 | 7.21
CCC1=C[C@@H]2CN(CCc3c([nH]c4ccccc34)[C@@](C(=O)OC)(c3cc4c(cc3OC)N(C)[C@H]3[C@](O)(CNC(=O)OC5CCCC5)[C@H](OC(C)=O)[C@]5(CC)C=CCN6CC[C@]43[C@@H]65)C2)C1 | A549 | 6.75

Kindly consider the entry below.
Would you kindly share the measured pIC50 for CCC1=C[C@@H]2CN(CCc3c([nH]c4ccccc34)[C@@](C(=O)OC)(c3cc4c(cc3OC)N(C)[C@H]3[C@](O)(CNC(=O)OC5CCCCC5)[C@H](OC(C)=O)[C@]5(CC)C=CCN6CC[C@]43[C@@H]65)C2)C1 ?
6.42

----------
system: A549; test: Cytotoxicity against human A549 cells after 72 hrs by SRB assay; assay type: functional, cell-based; details: A549, 72 h
# IC50 listing for each entry below
API: value field is a number in nM; no unit string.

chemical-string | IC50 (nM)
CCC1=C[C@@H]2CN(CCc3c([nH]c4ccccc34)[C@@](C(=O)OC)(c3cc4c(cc3OC)N(C)[C@H]3[C@](O)(CNC(=O)OCCOC)[C@H](OC(C)=O)[C@]5(CC)C=CCN6CC[C@]43[C@@H]65)C2)C1 | 65
CCC1=C[C@@H]2CN(CCc3c([nH]c4ccccc34)[C@@](C(=O)OC)(c3cc4c(cc3OC)N(C)[C@H]3[C@](O)(CNC(=O)OCc5ccc([N+](=O)[O-])cc5)[C@H](OC(C)=O)[C@]5(CC)C=CCN6CC[C@]43[C@@H]65)C2)C1 | 38
CCC1=C[C@@H]2CN(CCc3c([nH]c4ccccc34)[C@@](C(=O)OC)(c3cc4c(cc3OC)N(C)[C@H]3[C@](O)(CNC(=O)OC(C)(C)C)[C@H](OC(C)=O)[C@]5(CC)C=CCN6CC[C@]43[C@@H]65)C2)C1 | 604
CCC1=C[C@@H]2CN(CCc3c([nH]c4ccccc34)[C@@](C(=O)OC)(c3cc4c(cc3OC)N(C)[C@H]3[C@](O)(CNC(=O)OC(C)C)[C@H](OC(C)=O)[C@]5(CC)C=CCN6CC[C@]43[C@@H]65)C2)C1 | 162
CCC1=C[C@@H]2CN(CCc3c([nH]c4ccccc34)[C@@](C(=O)OC)(c3cc4c(cc3OC)N(C)[C@H]3[C@](O)(CNC(=O)OCc5ccccc5)[C@H](OC(C)=O)[C@]5(CC)C=CCN6CC[C@]43[C@@H]65)C2)C1 | 57

Which IC50 reading was recorded for the compound CCC1=C[C@@H]2CN(CCc3c([nH]c4ccccc34)[C@@](C(=O)OC)(c3cc4c(cc3OC)N(C)[C@H]3[C@](O)(CNC(=O)OCC(C)C)[C@H](OC(C)=O)[C@]5(CC)C=CCN6CC[C@]43[C@@H]65)C2)C1 ?
66

Which IC50 is reported for this compound? CCC1=C[C@@H]2CN(CCc3c([nH]c4ccccc34)[C@@](C(=O)OC)(c3cc4c(cc3OC)N(C)[C@H]3[C@](O)(CNC(=O)OCc5cccc(Cl)c5)[C@H](OC(C)=O)[C@]5(CC)C=CCN6CC[C@]43[C@@H]65)C2)C1
203
